# pIC50 per entry for Glutamate NMDA receptor
Bear in mind: pIC50 is minus log10 of a mol/L concentration; give just that figure.

Worked cases, pIC50 given:
{"molecule": "COC(=O)c1c(O)c2ccc(Cl)cc2[nH]c1=O", "pIC50": 5.19}
{"molecule": "O=c1[nH]c2cc(Cl)ccc2c(O)c1-c1ccccc1", "pIC50": 6.77}
{"molecule": "C[C@@H]1CN(O)C(=O)[C@@H]1N", "pIC50": 5.57}
{"molecule": "O=[N+]([O-])c1cc([N+](=O)[O-])c2nc(O)c(O)nc2c1", "pIC50": 6.77}
{"molecule": "O=C(O)c1cc(O)c2c(I)cc(Cl)cc2n1", "pIC50": 7.85}

# input molecule: `Oc1nc2cc(Cl)cc(Cl)c2c(O)c1-c1ccccc1` ; wanted: its pIC50
7.01

Quick one: pIC50 for `CCc1cc(Cl)cc2nc(O)c(-c3ccccc3)c(O)c12` ?
8.16

Entry under review: `O=C(Nc1ccccc1)N[C@H]1C[C@H](C(=O)O)Nc2cc(Cl)cc(Cl)c21` . Reported pIC50?
8.40

So what does the record say about pIC50 for `O=C(c1ccccc1)c1c(O)nc2cc(Cl)ccc2c1O` ?
5.49

I would be grateful if you could share the reported pIC50 for `O=C(O)c1cc(O)c2c(Cl)cc(Cl)cc2n1` .
7.19

Dear colleague, I am looking for the recorded pIC50 of the following molecule: O=C1Nc2cc(Cl)ccc2CC1[N+](=O)[O-] (stereo not drawn)
6.39

* * *

Each entry below carries its recorded pKa.
assay_protocol: Dissociation constant pKa was determined
Type: physicochemical
Answer field: number only, no words.

{"line_notation": "O=[N+]([O-])c1cc([N+](=O)[O-])c2nc(O)c(O)nc2c1", "pKa": 6.5}

Bench note: what pKa did `O=c1[nH]c2cc(Cl)ccc2c(O)c1-c1ccccc1` show?
5.4
